The reported numbers originate from patent US20250277029A1.

- target: human cannabinoid receptor 1 (huCB1), full length, expressed on cells (human, UniProt P21554 1-472)
- Sequence (P21554 whole entry): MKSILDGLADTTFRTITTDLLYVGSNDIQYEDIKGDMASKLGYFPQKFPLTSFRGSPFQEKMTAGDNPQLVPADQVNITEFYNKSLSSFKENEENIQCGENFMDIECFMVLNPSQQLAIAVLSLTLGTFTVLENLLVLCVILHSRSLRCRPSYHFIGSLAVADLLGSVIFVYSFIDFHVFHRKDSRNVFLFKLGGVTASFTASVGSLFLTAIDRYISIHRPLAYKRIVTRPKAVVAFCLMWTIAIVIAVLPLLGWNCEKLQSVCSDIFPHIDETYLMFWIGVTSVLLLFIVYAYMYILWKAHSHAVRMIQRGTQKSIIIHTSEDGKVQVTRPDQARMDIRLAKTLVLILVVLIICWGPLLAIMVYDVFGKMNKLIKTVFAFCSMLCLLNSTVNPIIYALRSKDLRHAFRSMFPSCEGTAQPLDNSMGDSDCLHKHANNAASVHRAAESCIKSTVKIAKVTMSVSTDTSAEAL
- test: cell-based or functional assay

binder | n = 2 IC50, -fold vs Rimo (fold vs Rimonabant)
LIBC523969-1 (antibody, V domains shown) VH: QVQLQESGPGLVKPSQTLSLTCTVSGGSIRRGGDYWSWIRQHPGKGLEWIGHIYQTGQTKYNPNLKGRATISVNTYKNQFSLKLSSVTAADTAVYYCARDYDILTGYSYYYYGMDVWGQGTTVTVSS VL: DIVMTQSPLSLPVTPGEPASISCRSSQSLLSSTGANYLDWYLQKPGQSPQLLIYQGSNRASGVPDRFSGSGSGTDFTLKISRVEAEDVGVYYCRQAVGLPRTFGQGTKVEIKR | 0.7
LIBC527869-1 (antibody, V domains shown) VH: QVQLQESGPGLVKPSQTLSLTCTVSGGNIRRGGDYWAWIRQHPGKGLEWIGHIYHTGKTNYNPSFKGRATISVKTYKNQFSLKLSSVTAADTAVYYCARNYDTLSGNSYYYYGMDVWGQGTTVTVSS VL: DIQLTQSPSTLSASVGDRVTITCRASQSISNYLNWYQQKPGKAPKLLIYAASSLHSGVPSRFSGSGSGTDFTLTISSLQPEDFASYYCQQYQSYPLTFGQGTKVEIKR | 20.2
LIBC527906-1 (antibody, V domains shown) VH: QVQLQESGPGLVKPSQTLSLTCTVSGGSIRRGGDYWGWIRQHPGKGLEWIGHIYQTGSTNYNPNFKDRATISVDTYKNQFSLKLSSVTAADTAVYYCARDYDILTGYSYYYYGMDVWGQGTTVTVSS VL: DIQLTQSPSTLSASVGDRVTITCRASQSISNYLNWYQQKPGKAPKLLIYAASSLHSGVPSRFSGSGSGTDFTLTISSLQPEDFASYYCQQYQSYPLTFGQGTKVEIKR | 1.48
